# Target entity: TIR1-IAA1 (Arabidopsis thaliana, UniProt P49677+Q570C0)
# Assay notes: [3H]-IAA homologous competitive binding, TIR1-IAA1
# Experimental setup: Kd (Mean ± SEM), TIR1-IAA1, homologous competition
Readout type: pKd
Give bare numbers, as −log10 of the molar value.

State the recorded pKd for this entry: O=C(O)Cc1c[nH]c2ccccc12 [IAA, Indole-3-acetic acid] 7.35
